assay: qHTS RealTime-Glo MT Cell Viability Assay in HEK293 cells - 8 hour (AID 1224887); conditions: RealTime-Glo luminescence; series mostly up to 76.8 µM; further: nearly all actives have a fitted effect of over 50% in size
Results filed as inconclusive are left out. Active and inactive are the calls of the source. The call rests on the fitted dose curve; in most records, active means well fitted cell-killing curve with a large enough effect in the repeat runs; inconclusive means weak or mixed curves, or effect the other way; inactive means flat fitted curve, though single readings scatter.
Outcome codes: active, inactive

[
  {
    "Compound": "N=c1ccn2c(n1)O[C@H]1[C@H](O)[C@@H](CO)O[C@H]12",
    "Qualitative label": "inactive"
  },
  {
    "Compound": "C=CC(=O)OCCOc1ccccc1",
    "Qualitative label": "inactive"
  },
  {
    "Compound": "Clc1ccc2c(c1)CCc1cccnc1C2=C1CCNCC1",
    "Qualitative label": "inactive"
  },
  {
    "Compound": "CC1CCC(=O)C1=O (centres undefined)",
    "Qualitative label": "inactive"
  },
  {
    "Compound": "O=C(O)c1nc(Cl)c(Cl)c(Cl)c1Cl",
    "Qualitative label": "inactive"
  },
  {
    "Compound": "CCCCCCCCCCCCCCCCCCOS(=O)(=O)O",
    "Qualitative label": "inactive"
  },
  {
    "Compound": "O=C(c1ccc(F)cc1)C1CCN(CCn2c(=S)[nH]c3ccccc3c2=O)CC1",
    "Qualitative label": "active"
  },
  {
    "Compound": "CCCNCC(O)COc1ccccc1C(=O)CCc1ccccc1 (centres undefined)",
    "Qualitative label": "active"
  },
  {
    "Compound": "CCOC(=O)C(F)(F)F",
    "Qualitative label": "inactive"
  },
  {
    "Compound": "C=CCOc1ccccc1OCC(O)CNC(C)C (centres undefined)",
    "Qualitative label": "inactive"
  },
  {
    "Compound": "CCCC(=O)Nc1ccc(O)c(C(C)=O)c1",
    "Qualitative label": "inactive"
  },
  {
    "Compound": "CCC(Cl)CCC(Cl)C(Cl)CC(Cl)C(Cl)C(Cl)CCl (centres undefined)",
    "Qualitative label": "inactive"
  },
  {
    "Compound": "CCC(C)O (centres undefined)",
    "Qualitative label": "inactive"
  },
  {
    "Compound": "CCn1cc(C(=O)O)c(=O)c2cnc(N3CCNCC3)nc21",
    "Qualitative label": "inactive"
  },
  {
    "Compound": "C1CCCNCCC1",
    "Qualitative label": "inactive"
  },
  {
    "Compound": "C[C@H]1C[C@H]2[C@@H]3CCC4=CC(=O)C=C[C@]4(C)[C@@]3(Cl)[C@@H](O)C[C@]2(C)[C@@]1(O)C(=O)CO",
    "Qualitative label": "inactive"
  },
  {
    "Compound": "NCc1ccccc1Sc1ccccc1CO",
    "Qualitative label": "inactive"
  },
  {
    "Compound": "CCCCCCOC(=O)NC(=N)c1ccc(NCc2nc3cc(C(=O)N(CCC(=O)OCC)c4ccccn4)ccc3n2C)cc1",
    "Qualitative label": "active"
  },
  {
    "Compound": "CN(C)CCOC(c1ccccc1)c1ccc(Br)cc1 (centres undefined)",
    "Qualitative label": "inactive"
  },
  {
    "Compound": "CCCCCCCC#N",
    "Qualitative label": "inactive"
  },
  {
    "Compound": "CCN(CC)CCOC(=O)C(Cc1cccc2ccccc12)CC1CCCO1 (centres undefined)",
    "Qualitative label": "inactive"
  },
  {
    "Compound": "Cc1c(N)cccc1[N+](=O)[O-]",
    "Qualitative label": "inactive"
  },
  {
    "Compound": "CCCCCC[C@@H](O)C/C=C\\CCCCCCCC(=O)OC",
    "Qualitative label": "inactive"
  },
  {
    "Compound": "COCC(C)OC(C)=O (centres undefined)",
    "Qualitative label": "inactive"
  },
  {
    "Compound": "CO[C@@H]1[C@H](OC(=O)/C=C/C=C/C=C/C=C/C(=O)O)CC[C@]2(CO2)[C@H]1[C@@]1(C)O[C@@H]1CC=C(C)C",
    "Qualitative label": "inactive"
  },
  {
    "Compound": "CCCCC(CC)COC(=O)COc1ccc(Cl)cc1Cl (centres undefined)",
    "Qualitative label": "inactive"
  },
  {
    "Compound": "CCOC(=O)C1=C[C@]2(CC)CCCN3CCc4c(n1c1ccccc41)[C@@H]32",
    "Qualitative label": "inactive"
  },
  {
    "Compound": "CCCn1cnc2c1c(=O)n(CCCCC(C)=O)c(=O)n2C",
    "Qualitative label": "inactive"
  },
  {
    "Compound": "Cc1ccccc1S(=O)(=O)O",
    "Qualitative label": "inactive"
  },
  {
    "Compound": "c1ccc(-c2ccccn2)nc1",
    "Qualitative label": "inactive"
  },
  {
    "Compound": "COc1ccc2cccc(CCNC(C)=O)c2c1",
    "Qualitative label": "inactive"
  },
  {
    "Compound": "OC(CN1CCC(Cc2ccc(F)cc2)CC1)c1ccc(Cl)cc1 (centres undefined)",
    "Qualitative label": "active"
  },
  {
    "Compound": "O=C(O)C1(C(=O)Nc2ccc(Cl)cc2Cl)CC1",
    "Qualitative label": "inactive"
  },
  {
    "Compound": "CCCCC1=NC2(CCCC2)C(=O)N1Cc1ccc(-c2ccccc2-c2nn[nH]n2)cc1",
    "Qualitative label": "inactive"
  },
  {
    "Compound": "CC[N+](C)(CC)CCOC(=O)C(O)(c1ccccc1)C1CCCCC1 (centres undefined)",
    "Qualitative label": "inactive"
  },
  {
    "Compound": "C[Si](C)(CCCN)O[Si](C)(C)CCCN",
    "Qualitative label": "inactive"
  },
  {
    "Compound": "CCCCCCCCO[C@@H]1O[C@H](CO)[C@@H](O)[C@H](O)[C@H]1O",
    "Qualitative label": "inactive"
  },
  {
    "Compound": "C[C@@H]1C[C@H]2[C@@H]3CCC4=CC(=O)C=C[C@]4(C)[C@@]3(F)[C@@H](O)C[C@]2(C)[C@@]1(O)C(=O)COC(=O)c1ccncc1",
    "Qualitative label": "inactive"
  },
  {
    "Compound": "C/C=C(/C(=C/C)c1ccc(OC(C)=O)cc1)c1ccc(OC(C)=O)cc1",
    "Qualitative label": "inactive"
  },
  {
    "Compound": "CN1CCN(C(c2ccccc2)c2ccccc2)CC1",
    "Qualitative label": "inactive"
  },
  {
    "Compound": "COC(C)OC",
    "Qualitative label": "inactive"
  },
  {
    "Compound": "Nc1ccc(S(=O)(=O)Nc2ccccc2)cc1",
    "Qualitative label": "inactive"
  },
  {
    "Compound": "CCN(CC)CCNc1ccc(CNC=O)c2sc3ccc(OC)cc3c(=O)c12",
    "Qualitative label": "active"
  },
  {
    "Compound": "O=C(O)c1ccc(-n2nc(-c3ccccc3O)nc2-c2ccccc2O)cc1",
    "Qualitative label": "inactive"
  },
  {
    "Compound": "CCOC(=O)C(O)c1ccccc1 (centres undefined)",
    "Qualitative label": "inactive"
  },
  {
    "Compound": "Cc1nn(C)c(Oc2ccccc2)c1/C=N/OCc1ccc(C(=O)OC(C)(C)C)cc1",
    "Qualitative label": "inactive"
  },
  {
    "Compound": "Cc1oc(-c2ccccc2)nc1CCOc1cccc2c1ccn2CCC(=O)O",
    "Qualitative label": "inactive"
  },
  {
    "Compound": "CC(=O)OC[C@H]1O[C@@H](n2ncc(=O)[nH]c2=O)[C@H](OC(C)=O)[C@@H]1OC(C)=O",
    "Qualitative label": "inactive"
  },
  {
    "Compound": "CC1=CC=C(C(C)C)CC1",
    "Qualitative label": "inactive"
  }
]

---

test: qHTS assay to identify small molecule antagonists of the constitutive androstane receptor (CAR) signaling pathway - cell viability counter screen (AID 1224837); conditions: HepG2-CYP2B6-hCAR viability, CellTiter-Fluor, 23 h, co-treated with 50 nM CITCO; series mostly up to 92.4 µM; further: on the % scale 0 is the no-effect control and ±100 the full control effect; nearly all actives have a fitted effect of over 45% in size
Records with an inconclusive call do not appear. Activity calls are given as the source filed them. Calls follow the shape of the dose curve; as a rule, active = well fitted cell-killing curve with a large enough effect in the repeat runs; inconclusive = weak or mixed curves, or effect the other way; inactive = flat fitted curve, though single readings scatter.
Property: activity change, negative = cytotoxicity; scope: individual compounds

[
  {
    "Test smiles": "Brc1c2ccccc2c(Br)c2ccccc12",
    "activity change, negative = cytotoxicity": "6.42% [at 8.39 µM] (inactive)"
  },
  {
    "Test smiles": "C/C=C/C(=O)CC",
    "activity change, negative = cytotoxicity": "0.0894% [at 19 µM] (inactive)"
  },
  {
    "Test smiles": "C/C(=C(\\CCOP(=O)(O)O)SC(=O)c1ccccc1)N(C=O)Cc1cnc(C)nc1N",
    "activity change, negative = cytotoxicity": "5.24% [at 8.39 µM] (inactive)"
  },
  {
    "Test smiles": "NC(N)=NCCC[C@H](N)C(=O)O",
    "activity change, negative = cytotoxicity": "-4.98% [at 8.39 µM] (inactive)"
  },
  {
    "Test smiles": "CN(C)c1ccc(/C=C/c2ccc([N+](=O)[O-])cc2)cc1",
    "activity change, negative = cytotoxicity": "11.7% [at 8.39 µM] (inactive)"
  }
]

meta.source: PubChem BioAssay (Tox21)
